target: uPAR-expressing HEC-265 human endometrial adenocarcinoma cells (Homo sapiens, UniProt Q03405)
Construct: Cell surface uPAR-expressing HEC-265 human endometrial adenocarcinoma cells; host or cells: HEC-265
Sequence (Q03405 23-335): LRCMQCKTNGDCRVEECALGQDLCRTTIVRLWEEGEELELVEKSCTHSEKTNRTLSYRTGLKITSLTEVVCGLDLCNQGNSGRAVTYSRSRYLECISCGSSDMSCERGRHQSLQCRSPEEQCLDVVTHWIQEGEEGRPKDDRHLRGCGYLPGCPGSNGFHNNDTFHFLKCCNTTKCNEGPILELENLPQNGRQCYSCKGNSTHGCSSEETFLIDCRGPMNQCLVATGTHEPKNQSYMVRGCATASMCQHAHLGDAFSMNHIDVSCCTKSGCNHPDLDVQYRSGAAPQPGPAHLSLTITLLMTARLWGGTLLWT
experiment-description: Competitive FACS binding assay
assay-conditions: pIC50 category of FACS binding
Procedure: In order to determine binding of compounds according to the present invention to uPAR-expressing cells, a competitive FACS binding assay was established. Cell surface uPAR-expressing HEC-265 human endometrial adenocarcinoma cells (Japanese Collection of Research Bioresources, #JCRB1142) were cultured in MEM Eagle with stable glutamine (Pan Biotech, #P04-09500) including 15% fetal bovine serum (Pan Biotech, #P30-3306) and 100 U/ml penicillin and 100 µg/mL streptomycin (Pan Biotech, #P06-07100). […]
pIC50: −log10 of the molar value. Where a SMILES comes first, the peptide text is derived from it. Bridges are numbered along the chain shown (N, C = ends). [ ]: non-standard residue; d: D form. The star is where a group is joined. Acetyl(4-DOTA-piperazinyl) = O=C(O)CN1CCN(CC(=O)O)CCN(CC(=O)N2CCN(CC(=O)*)CC2)CCN(CC(=O)O)CC1; DOTA = O=C(O)CN1CCN(CC(=O)O)CCN(CC(=O)*)CCN(CC(=O)O)CC1; Pro(cis-4-F) = O=C(O)[C@@H]1C[C@H](F)CN1; Dopa = N[C@@H](Cc1ccc(O)c(O)c1)C(=O)O; Hyp = O=C(O)[C@@H]1C[C@@H](O)CN1; 3Pal = N[C@@H](Cc1cccnc1)C(=O)O; Pentanoyl(4-Me) = CC(C)CCC(=O)*; Cit = NC(=O)NCCC[C@H](N)C(=O)O; Butoxycarbonyl = CCCCOC(=O)*; Nva = CCC[C@H](N)C(=O)O; Hexanoyl = CCCCCC(=O)*; Pentanoyl = CCCCC(=O)*
experimental-endpoint: pIC50

The following compounds have reported results that may help.
INSERT INTO assay_data (compound, endpoint_result) VALUES
  ('CCCCCC(=O)N[C@@H](CCCCNC(=O)CN1CCN(CC(=O)O)CCN(CC(=O)O)CCN(CC(=O)O)CC1)C(=O)N[C@@H](CC(C)C)C(=O)N[C@H]1CSSC[C@@H](C(N)=O)NC(=O)[C@H](CC(C)C)NC(=O)[C@H]([C@@H](C)CC)NC(=O)[C@H](C)NC(=O)[C@@H]2CCCN2C(=O)[C@H](Cc2ccccc2)NC(=O)[C@H](Cc2ccc(O)cc2)NC(=O)[C@H](CCSC)NC(=O)[C@H](CCCNC(=N)N)NC1=O [UPAR-140] (Hexanoyl-K(DOTA)LCRMYFPAILC-NH2; disulfide 3-12)', '≥ 8.00'),
  ('CCCCOC(=O)N[C@H]1CSSC[C@@H](C(N)=O)NC(=O)[C@H](CCC)NC(=O)[C@H]([C@@H](C)CC)NC(=O)[C@@H]2C[C@@H](O)CN2C(=O)[C@@H]2C[C@H](F)CN2C(=O)[C@H](Cc2ccccc2)NC(=O)[C@H](Cc2cccnc2)NC(=O)[C@H](CCCCNC(=O)CN2CCN(CC(=O)O)CCN(CC(=O)O)CCN(CC(=O)O)CC2)NC(=O)[C@H]([C@@H](C)O)NC1=O [UPAR-165] (Butoxycarbonyl-CTK(DOTA)[3Pal]F[Pro(cis-4-F)][Hyp]I[Nva]C-NH2; disulfide 1-10)', '≥ 8.00'),
  ('CCCCC(=O)N[C@H]1CSSC[C@@H](C(N)=O)NC(=O)[C@H](CCC)NC(=O)[C@H]([C@@H](C)CC)NC(=O)[C@@H]2C[C@@H](O)CN2C(=O)[C@@H]2C[C@H](F)CN2C(=O)[C@H](Cc2ccccc2)NC(=O)[C@H](Cc2ccc(O)cc2)NC(=O)[C@H](CCCCNC(=O)CN2CCN(CC(=O)O)CCN(CC(=O)O)CCN(CC(=O)O)CC2)NC(=O)[C@H](CCCNC(N)=O)NC1=O [UPAR-365] (Pentanoyl-C[Cit]K(DOTA)YF[Pro(cis-4-F)][Hyp]I[Nva]C-NH2; disulfide 1-10)', '≥ 8.00'),
  ('CC[C@H](C)[C@@H]1NC(=O)[C@@H](C)NC(=O)[C@@H]2CCCN2C(=O)[C@H](Cc2ccccc2)NC(=O)[C@H](Cc2ccc(O)cc2)NC(=O)[C@H](CCC(N)=O)NC(=O)[C@@H](CCCNC(=N)N)NC(=O)[C@@H](NC(=O)CCC(C)C)CSSC[C@@H](C(N)=O)NC(=O)[C@H](CC(C)C)NC1=O [UPAR-467] ({Pentanoyl(4-Me)}-C[dR]QYFP[dA]ILC-NH2; disulfide 1-10)', '≤ 6.90');

Kindly review the next compound as well.
Any idea what pIC50 was measured for CCCCOC(=O)N[C@H]1CSSC[C@@H](C(N)=O)NC(=O)[C@H](CCC)NC(=O)[C@H]([C@@H](C)CC)NC(=O)[C@@H]2C[C@@H](O)CN2C(=O)[C@@H]2C[C@H](F)CN2C(=O)[C@H](Cc2ccccc2)NC(=O)[C@H](Cc2ccc(O)c(O)c2)NC(=O)[C@H](CCCCNC(=O)CN2CCN(C(=O)CN3CCN(CC(=O)O)CCN(CC(=O)O)CCN(CC(=O)O)CC3)CC2)NC(=O)[C@H]([C@@H](C)O)NC1=O [UPAR-199] (Butoxycarbonyl-CTK(Acetyl(4-DOTA-piperazinyl))[Dopa]F[Pro(cis-4-F)][Hyp]I[Nva]C-NH2; disulfide 1-10) ?
≥ 8.00
